test: Cellular toxicity (Cell Counting Kit-8); assay type: cell-based, Human; conditions: human, U87.CD4.CCR5/CXCR4 cells; 48 h, CCK-8, 0.1–1000 µM
reportedProperty: CC50 at 48 h

Consider the reported CC50 at 48 h for these molecules:
# molecule, CC50 at 48 h
rows = [
    ("Nc1nc(-c2ccc(F)c3c(C(=O)C(=O)NC4C5CN(C(=O)c6ccccc6)CC54)c[nH]c23)no1 (stereo not drawn)", "73 µM"),
    ("O=C(NC1C2CN(C(=O)c3ccccc3)CC21)C(=O)c1c[nH]c2c(-c3cccnc3)ncc(F)c12 (stereo not drawn)", "120 µM"),
    ("COc1ccc(-c2noc(N)n2)c2[nH]cc(C(=O)C(=O)NC3C4CN(C(=O)c5ccccc5)CC43)c12 (stereo not drawn)", "94 µM"),
    ("COc1cnc(-n2cnc(C)n2)c2[nH]cc(C(=O)C(=O)NC3C4CN(C(=O)c5ccccc5)CC43)c12 (stereo not drawn)", "190 µM"),
    ("C=C(C(=O)NC1C2CN(C(=O)c3ccccc3)CC21)n1ccc2c(-n3cnc(C)n3)nc3ccnn3c21 (stereo not drawn)", "9.2 µM"),
]

# CC50 at 48 h of CNC(=O)c1ncc(OC)c2c(C(=O)C(=O)NC3C4CN(C(=O)c5ccccc5)CC43)c[nH]c12 (stereo not drawn) = 326 µM
